Test system: MCF10A
Assay: 5+ nucleoli phenotype percent effect (relative to siNT 0% and siKIF11 100%); higher = more cells with five or more nucleoli
Conditions: 20 nM; 72 h
observable: 5+ nucleoli phenotype percent effect (%)
Write the number in % without appending the unit.

Fill blank: measured 5+ nucleoli phenotype percent effect of the sequence UUGCCAUGUCUAAGAAGAA [hsa-miR-4659b-5p] is ____.
-38.1

Query (sequence): ACCCGCCCGUCUCCCCACAG [hsa-miR-7108-3p] ; field requested: 5+ nucleoli phenotype percent effect
28.2

Report 5+ nucleoli phenotype percent effect for AAAAUGGUUCCCUUUAGAGUGU [hsa-miR-522-3p] please.
28.6

Quick one: 5+ nucleoli phenotype percent effect of CAGCCCUCCUCCCGCACCCAAA [hsa-miR-4687-5p] ?
-6.45

What value of measured 5+ nucleoli phenotype percent effect is listed for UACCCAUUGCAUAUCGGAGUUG [hsa-miR-660-5p] ?
-38.8

Data request, read-out 5+ nucleoli phenotype percent effect, for GUGAGGGCAUGCAGGCCUGGAUGGGG [hsa-miR-1226-5p]
53.3

Entry GAGCCAGUGGUGAGACAGUGA [hsa-miR-4676-5p] has what 5+ nucleoli phenotype percent effect?
-5.34

# query: 5+ nucleoli phenotype percent effect of entry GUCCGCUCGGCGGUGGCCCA [hsa-miR-572]
-5.13

Item CAUCCGUCCGUCUGUCCAC [hsa-miR-4800-3p] has what recorded 5+ nucleoli phenotype percent effect?
-3.64

Would you mind telling me what 5+ nucleoli phenotype percent effect value was observed for UAAAACCCACAAUUAUGUUUGU [hsa-miR-548as-3p] ?
-6.8

I'd like to know its 5+ nucleoli phenotype percent effect. The sequence in question is CUUAGACUGCCAGACUCCCUGA [hsa-miR-7702]
59.3

Reported 5+ nucleoli phenotype percent effect for CCUCGGUACUGGAAAGGGGUA [hsa-miR-8088] : what is it?
15.8

* * *

Test system: MCF10A
Assay: 5+ nucleoli phenotype percent effect (relative to siNT 0% and siKIF11 100%); higher = more cells with five or more nucleoli
Conditions: 20 nM; 72 h
Provide the recorded 5+ nucleoli phenotype percent effect for the entries that follow.
Report the value in % with no unit label.

Dear colleague, I am looking for the recorded 5+ nucleoli phenotype percent effect of the following sequence: AACCAUCGACCGUUGAGUGGAC [hsa-miR-181c-3p]
-21.2

Request the reported 5+ nucleoli phenotype percent effect associated with ACAUACUUCUUUAUAUGCCCAU [hsa-miR-1-5p]
-8.68

I'd like to know its 5+ nucleoli phenotype percent effect. The sequence in question is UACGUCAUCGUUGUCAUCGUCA [hsa-miR-598]
47.8

Please give the measured 5+ nucleoli phenotype percent effect for this sequence: UGCUUCCUUUCAGAGGGU [hsa-miR-516a-3p]
-23

Requested read-out: 5+ nucleoli phenotype percent effect. Entry: AGGGCCGAAGGGUGGAAGCUGC [hsa-miR-6877-5p]
-6.96

Need 5+ nucleoli phenotype percent effect, item GGUGCAGUGCUGCAUCUCUGGU [hsa-miR-143-5p]
-0.693

Reported 5+ nucleoli phenotype percent effect, sequence UCACAGUGAACCGGUCUCUUU [hsa-miR-128] : ____
-27.9

Look at this sequence and give its reported 5+ nucleoli phenotype percent effect. UGACAGCGCCCUGCCUGGCUC [hsa-miR-2277-3p]
-19.4

Could you tell me which 5+ nucleoli phenotype percent effect is on file for AGAAGUAAUUGCGGUUUUGCCA [hsa-miR-548ax] ?
-15.7

Reported 5+ nucleoli phenotype percent effect for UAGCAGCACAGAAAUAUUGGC [hsa-miR-195-5p] : what is it?
-10.1

Value lookup for 5+ nucleoli phenotype percent effect; key = AAUCUGAGAAGGCGCACAAGGU [hsa-miR-3200-5p]
-28.4

So what's the measured 5+ nucleoli phenotype percent effect for this one? GAGUGGGGCUUCGACCCUAACC [hsa-miR-1296-3p]
-0.672

If you can, please state the reported 5+ nucleoli phenotype percent effect value of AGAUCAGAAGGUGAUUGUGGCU [hsa-miR-383-5p] .
-26.7

Fill blank: measured 5+ nucleoli phenotype percent effect of the sequence GAGGGUCUUGGGAGGGAUGUGAC [hsa-miR-1182] is ____.
44.5

Entry under review: AGGAGGGAAGGGGCUGAGAACAGGA [hsa-miR-6797-5p] . Reported 5+ nucleoli phenotype percent effect?
33.9

Could you share which 5+ nucleoli phenotype percent effect value was measured for AAAAGUUAUUGCGGUUUUGGCU [hsa-miR-548at-5p] ?
15

I am curious: what 5+ nucleoli phenotype percent effect value has been reported for AGAGUUGAGUCUGGACGUCCCG [hsa-miR-219-1-3p] ?
30.8

Fill in the blank: the reported 5+ nucleoli phenotype percent effect of UUUGGACAGAAAACACGCAGGU [hsa-miR-4520b-3p] is ____.
50

# query: 5+ nucleoli phenotype percent effect of entry UCACAGUGGUCUCUGGGAUUAU [hsa-miR-216a-3p]
-17.5

Please give the measured 5+ nucleoli phenotype percent effect for this sequence: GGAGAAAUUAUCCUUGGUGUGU [hsa-miR-539-5p]
17.9

Sample CAUCAGCACCCUAUGUCCUUUCU [hsa-miR-3617-3p] — what was its 5+ nucleoli phenotype percent effect?
-20.3

Field request: 5+ nucleoli phenotype percent effect | item: UGUCUCUCGCCCUUGGCCUUAG [hsa-miR-6895-3p]
-32.5

Item ACAGGAGUGGGGGUGGGACAU [hsa-miR-4433-3p] has what recorded 5+ nucleoli phenotype percent effect?
-0.614

Quick one: 5+ nucleoli phenotype percent effect of UGUGACUGCAUUAUGAAAAUUCU [hsa-miR-3118] ?
5.27

Give the measured 5+ nucleoli phenotype percent effect of AAGGAGCUUACAAUCUAGCUGGG [hsa-miR-708-5p] .
-34.6

Which 5+ nucleoli phenotype percent effect value is on record for UACCAUUAGAAGAGCUGGAAGA [hsa-miR-6512-5p] ?
11

Which 5+ nucleoli phenotype percent effect is reported for this sequence? AACCCCUAAGGCAACUGGAUGG [hsa-miR-5195-5p]
2.35

What value of 5+ nucleoli phenotype percent effect has been reported for the following sequence? UCACUACCUGACAAUACAGU [hsa-miR-4999-3p]
0.698

Entry UGUGUGUGUAGAGGAAGAAGGGA [hsa-miR-6867-5p] has what 5+ nucleoli phenotype percent effect?
-22.4

Give the measured 5+ nucleoli phenotype percent effect of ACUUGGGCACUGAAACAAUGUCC [hsa-miR-635] .
32.7

Can you share its 5+ nucleoli phenotype percent effect? I mean this sequence: UAAGGUGCAUCUAGUGCAGUUAG [hsa-miR-18b-5p]
-32.4

Record request: 5+ nucleoli phenotype percent effect value, item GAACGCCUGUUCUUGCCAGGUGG [hsa-miR-614]
-0.465

Query (sequence): UCAGGCCUCUUUCUACCUU [hsa-miR-4650-5p] ; field requested: 5+ nucleoli phenotype percent effect
12.7

Query (sequence): UAGUGGUCAGAGGGCUUAUGA [hsa-miR-6718-5p] ; field requested: 5+ nucleoli phenotype percent effect
-44.7

What measured 5+ nucleoli phenotype percent effect goes with UCGUGCAUAUAUCUACCACAU [hsa-miR-4536-3p] ?
0.0637

Which value of 5+ nucleoli phenotype percent effect has been reported for GUGAGUGUGGAUCCUGGAGGAAU [hsa-miR-4658] in the records?
0.899

Recorded 5+ nucleoli phenotype percent effect of UGGCCCUGACUGAAGACCAGCAGU [hsa-miR-1291] , please.
23.5

Give the measured 5+ nucleoli phenotype percent effect of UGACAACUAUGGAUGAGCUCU [hsa-miR-549a] .
15.5

Returns the measured 5+ nucleoli phenotype percent effect for the input sequence. Input: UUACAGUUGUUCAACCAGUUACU [hsa-miR-582-5p]
12.8

Which 5+ nucleoli phenotype percent effect value belongs to CUAGGAGGCCUUGGCC [hsa-miR-4266] ?
-14.2

# input sequence: CAAGCUCGUGUCUGUGGGUCCG [hsa-miR-99b-3p] ; wanted: its 5+ nucleoli phenotype percent effect
-2.82

// query 5+ nucleoli phenotype percent effect value for entry UGAGGUAGUAGUUUCUU [hsa-miR-4500]
43.2

Consider the sequence CUCAGUAGCCAGUGUAGAUCCU [hsa-miR-222-5p] and give its measured 5+ nucleoli phenotype percent effect.
-14.7

// returns reported 5+ nucleoli phenotype percent effect for input AAAAGUAAUUGCGGGUUUUGCC [hsa-miR-548as-5p]
35.9

What measured 5+ nucleoli phenotype percent effect goes with AAAAGUAAUUGCGGUUUUUGC [hsa-miR-548au-5p] ?
42.7

Which 5+ nucleoli phenotype percent effect is listed for UCUUCACCUGCCUCUGCCUGCA [hsa-miR-6754-3p] ?
15.2

I have this sequence here, CAGGUCGUCUUGCAGGGCUUCU [hsa-miR-431-3p] , and I need its recorded 5+ nucleoli phenotype percent effect.
-53.4

Given UCCCUGCCCCCAUACUCCCAG [hsa-miR-6752-3p] , state its recorded 5+ nucleoli phenotype percent effect.
-28.9
